This listing pairs compounds with measured inhibition at 10 µM.
- SYSTEM TESTED: SRPK1 (Homo sapiens, UniProt Q96SB4)
- Construct: purchased DiscoverX (KINOMEscan)
- Sequence (Q96SB4 whole entry): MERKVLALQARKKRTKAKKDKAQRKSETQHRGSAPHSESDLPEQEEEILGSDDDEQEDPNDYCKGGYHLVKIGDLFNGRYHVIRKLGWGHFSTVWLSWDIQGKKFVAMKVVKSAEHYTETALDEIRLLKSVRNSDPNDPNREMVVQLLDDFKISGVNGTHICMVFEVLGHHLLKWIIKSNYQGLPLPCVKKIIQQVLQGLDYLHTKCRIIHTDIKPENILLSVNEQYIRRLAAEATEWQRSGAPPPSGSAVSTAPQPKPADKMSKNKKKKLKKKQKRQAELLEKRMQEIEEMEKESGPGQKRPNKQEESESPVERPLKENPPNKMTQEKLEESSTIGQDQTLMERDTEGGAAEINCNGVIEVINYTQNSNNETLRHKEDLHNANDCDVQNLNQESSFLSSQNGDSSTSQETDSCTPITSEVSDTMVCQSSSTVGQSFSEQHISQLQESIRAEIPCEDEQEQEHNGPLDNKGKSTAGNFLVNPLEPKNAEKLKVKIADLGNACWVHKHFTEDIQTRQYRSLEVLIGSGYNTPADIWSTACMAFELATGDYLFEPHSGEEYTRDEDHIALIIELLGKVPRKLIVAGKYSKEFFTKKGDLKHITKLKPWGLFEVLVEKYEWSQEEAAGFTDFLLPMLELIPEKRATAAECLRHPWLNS
- PROCEDURE DETAILS: KINOMEscan competitive binding
- RUN CONDITIONS: n=1, read-out: Percent inhibition, SRPK1
State the answer as a number, implicitly in %.

The following compounds have reported results that may help.
COc1ccc(Nc2nccc(-c3cnn4ncccc34)n2)cc1 | 90.6
COc1cc(Nc2nccc(-c3sc(N)nc3-c3cccc(NC(=O)c4c(F)cccc4F)c3)n2)cc(OC)c1OC | 0

# inhibition at 10 µM of Fc1cccc(COc2ccc(Nc3ncnc4c3CN(CCN3CCOCC3)CC4)cc2Cl)c1 = 0

# inhibition at 10 µM of CN1CCN(c2ccc(Nc3nccc(-c4cnn5ncccc45)n3)cc2C#N)CC1 = 95.5

# inhibition at 10 µM of Nc1ncc2c(-c3ccncc3)c[nH]c2n1 = 0

# inhibition at 10 µM of C[C@@H](Oc1cc(-c2cnc3ccccn23)sc1C(N)=O)c1ccccc1Cl = 96.1

# inhibition at 10 µM of c1ccc(COc2cccc(-c3ccnc4[nH]ccc34)c2)cc1 = 71.2

# inhibition at 10 µM of Cc1ccc(O)cc1N(C)c1ccnc(Nc2cccc(S(N)(=O)=O)c2)n1 = 0

# inhibition at 10 µM of Cc1ccc(O)cc1Nc1ccnc(Nc2cccc(C(N)=O)c2)n1 = 0

# inhibition at 10 µM of Clc1ccc(Nc2ncc(-c3ccccc3)s2)cc1 = 0
